- ASSAY REMARKS: soluble fraction after stress (log2 fold change); higher = more stays soluble; pooled small domains, quantitative proteomics
- SETUP CONDITIONS: stress: pH 4
PROPERTY: soluble fraction (log2)

Solved cases (3 shown):
[[record]]
monomer_sequence = "HMSLPNNLIEQLQDPEPKARRRAVRRLAATRDPSAIPLLRNVYLQDGDDRVRDAAEAALVQFRAMQHN"
endpoint_value = 0.104

[[record]]
monomer_sequence = "HMPPPVERAIRKLGHDLSLARRRRRISQDSMAQRMGASVSTVRRIEKGDPRIPIHFIARAMMILGDLKAL"
endpoint_value = -0.105

[[record]]
monomer_sequence = "HMLKEKETRALANFTNKFFGLDISEDLKPIALSELSKFKKTHKISNLEEFINSFQYDFQNEKILSLLDIFL"
endpoint_value = -0.879


Now for a further sequence.
Query block: // query soluble fraction (log2) value for entry HMKLKHANGNHPLTQQEKQNMIEEAAKHYGDYMTALGFDWKQDPNSSDTPMRVAKAFVNDLAEGVY
Result block: -0.348

----------
Entries and their measured soluble fraction (log2) follow.
- ASSAY REMARKS: soluble fraction after stress (log2 fold change); higher = more stays soluble; pooled small domains, quantitative proteomics
- SETUP CONDITIONS: stress: pH 4
The response must contain the number and no unit.

Solved cases (3 shown):
[[record]]
monomer_sequence = "HMDPPISNDARNAINAKLMKFSELHPNEMKKLVEAYKKEFKVSKISPITLARQGEFLSHAISKIDDT"
endpoint_value = -0.0331

[[record]]
monomer_sequence = "HMAAVEDLPVKSVNGKKYHYYTVQPKESLYSLSHKLGISRQEIIKYNPGVEDGLKAYEDLLFPYTPK"
endpoint_value = -0.419

[[record]]
monomer_sequence = "HMLARPTANELVKEMQRRAKEQRTELPPDAARDLLERSGQDQFLLGNEVDKLAALSGYTTITREMVAQAGT"
endpoint_value = 0.0328


Now for a further sequence.
Query block: // query soluble fraction (log2) value for entry HMSDFSNLNLLELNSSELDLLLRRASSQGLTQMDLLKMARSQGLSEADLIKVKGKIDTSESIKR
Result block: -0.0416

----------
Entries and their measured soluble fraction (log2) follow.
- ASSAY REMARKS: soluble fraction after stress (log2 fold change); higher = more stays soluble; pooled small domains, quantitative proteomics
- SETUP CONDITIONS: stress: pH 4

Solved cases (5 shown):
[[record]]
monomer_sequence = "HMLRGKNALMSQLDQIQGIGPKRKRALFNHFLTLDAIKQADVETLRQAPGMNLPAAEQVYRHFHM"
endpoint_value = 0.144

[[record]]
monomer_sequence = "HMPDYYAILEVERTADAKTIKAAYRKLALAYHPDRNPGDQAAEERFKQINEAYAVLSDPEKRARYDRYGSV"
endpoint_value = 0.139

[[record]]
monomer_sequence = "HMLEIDPPVDEISVSRKAFYEAAGYKVNPYTHIPPRYRKEFEEHSFVVMSWPRELPEETYRKFDRYLRDV"
endpoint_value = -0.253

[[record]]
monomer_sequence = "HMLPVFNYQVYRTHGLIYVYAKDNDSFDQIARSMGFKAKQLMKFNEVPEDFPLQAGDIVYLEKKKK"
endpoint_value = -0.368

[[record]]
monomer_sequence = "HMGRRSKAMLSSALDAVPGLGEMRRKALISQFGSLKKLRGATPEEIAAVPGIGPKLAAAVHEAVSG"
endpoint_value = 0.131


Query block: // query soluble fraction (log2) value for entry HMKYRLLGENLQTIRKARGMKQQELADQIGINMQSLSKIERGLNYPTFETLEKIMNALGITPNELLSG
Result block: -0.798
